- Test system: COLO 205 colon
- Measurement Description: NCI tumour cell line growth inhibition, 48 h
Measured Metric: TGI

Molecule	Measured Metric	Reported Value
C/C(=C1/CCC/C(=C(/C)c2ccccc2)C1=O)c1ccccc1	TGI	> 100 µM

Recorded TGI (molecule O=c1[nH]c(=O)n(C2OC(CO)C(O)C(O)C2O)cc1F (stereo unspecified) ): > 100 µM

====

- Tested on: SF-268 CNS
- Measurement Description: NCI tumour cell line growth inhibition, 48 h
Measured Metric: TGI

Compound	Target Or System	TGI
CSc1nc2cc(S(=O)(=O)N3CCCCC3)ccc2s1	SF-268 CNS	> 100 µM
CC(=O)O.[Au].c1ccc([PH+](c2ccccc2)c2ccccc2)cc1	SF-268 CNS	11.5 µM
CC(C)c1cc2c(O)c(c1)Cc1cc(C(C)C)cc(c1O)Cc1cc(C(C)C)cc(c1O)Cc1cc(C(C)C)cc(c1O)C2	SF-268 CNS	> 100 µM
COc1cccc(/C=C2\C(=O)N(C(=O)c3ccc(NC(C)=O)cc3)N=C2C)c1	SF-268 CNS	> 100 µM
C=C1CC[C@H](O)C(C)(C)[C@@H]1CC/C(C)=C/CC/C=C(\C)CC/C=C(\C)CCC=C(C)C	SF-268 CNS	> 100 µM
O=C1O/C(=C(/Br)c2ccc(Cl)c(Cl)c2)c2ccccc21	SF-268 CNS	> 10 µM

Recorded TGI (compound C=C1C(=O)O[C@H]2[C@H]1CC/C(COC(=O)c1cc3ccccc3s1)=C\CC[C@@]1(C)O[C@@H]21 ): 3.24 µM

Recorded TGI (compound Cc1ccc(NC(=O)c2sc3nc(C)c(C(O)c4ccccc4)cc3c2N)cc1 (stereo unspecified) ): > 100 µM

Recorded TGI (compound COc1cc(NS(=O)(=O)c2ccc(-c3cnc(C4CC4)o3)cc2)ccc1F ): 30.7 µM

Recorded TGI (compound COc1ccc(N2C(=O)C3ON(C(C(N)=O)c4ccccc4)C(c4cc5ccccc5c5ccccc45)C3C2=O)cc1 (stereo unspecified) ): > 50 µM

Recorded TGI (compound O=c1[nH]c(Nc2nc3ccccc3[nH]2)nc2c1CCC2 ): > 100 µM

Recorded TGI (compound CCCCCCC(=O)C/C(=N/NC(N)=S)C(=O)NC1C2CC3CC(C2)CC1C3 (stereo unspecified) ): > 100 µM

Recorded TGI (compound COc1cc(/C=C2\N=C(c3ccccc3)N(c3nc4c(OC)ccc(OC)c4s3)C2=O)ccc1O ): > 100 µM

Recorded TGI (compound COc1ccc(C2C3=C(Nc4ncnn42)c2ccccc2OC3c2ccccc2)cc1 (stereo unspecified) ): > 100 µM

Recorded TGI (compound CCOC(=O)C1(C(=O)OCC)C[C@H](C)[C@](C)(O)C1 ): > 100 µM

Recorded TGI (compound CCOP(=O)(O)C1C(CO)OC(n2ccc(=O)[nH]c2=O)C1O (stereo unspecified) ): > 100 µM

Recorded TGI (compound CC(=O)OCCOCn1cnc2c(Cl)nc(Cl)nc21 ): 36.6 µM

Recorded TGI (compound c1cc2c(ncc3cscc32)s1 ): > 100 µM

Recorded TGI (compound COc1ccc(CNc2nc3cc(C(F)(F)F)ccc3nc2C)cc1OC ): > 100 µM

Recorded TGI (compound Cc1ccc(S(=O)(=O)OC(c2ccc(Cl)cc2Cl)C2OC(=O)c3ccccc32)cc1 (stereo unspecified) ): > 100 µM

Recorded TGI (compound O=C(/C=C/c1c(O)ccc2ccccc12)c1ccccc1 ): > 100 µM
